target: HIV Env of isolate Du156.12 (clade C) (HIV); test: cell-based or functional assay
quantity: IC50 (µg/ml) with constrains (µg/mL)

[
  {
    "binder": "ePGDM5 (antibody, V domains shown) VH: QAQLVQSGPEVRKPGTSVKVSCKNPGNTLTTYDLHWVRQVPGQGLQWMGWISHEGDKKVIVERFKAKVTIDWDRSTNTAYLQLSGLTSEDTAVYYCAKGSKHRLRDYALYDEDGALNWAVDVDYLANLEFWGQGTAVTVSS VL: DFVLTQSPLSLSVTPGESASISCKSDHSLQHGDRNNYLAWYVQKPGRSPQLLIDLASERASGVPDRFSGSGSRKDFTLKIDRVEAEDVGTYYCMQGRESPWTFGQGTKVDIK",
    "quantity": "IC50 (µg/ml) with constrains",
    "recorded-value": 0.006
  },
  {
    "binder": "PGDM1400 (antibody, V domains shown) VH: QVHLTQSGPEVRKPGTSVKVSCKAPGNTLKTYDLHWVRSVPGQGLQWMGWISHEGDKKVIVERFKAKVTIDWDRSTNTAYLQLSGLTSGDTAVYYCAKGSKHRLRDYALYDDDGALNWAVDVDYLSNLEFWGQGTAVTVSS VL: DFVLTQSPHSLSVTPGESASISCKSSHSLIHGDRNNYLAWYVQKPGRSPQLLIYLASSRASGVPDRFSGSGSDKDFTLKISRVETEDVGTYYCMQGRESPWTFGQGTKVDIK",
    "quantity": "IC50 (µg/ml) with constrains",
    "recorded-value": 0.006
  },
  {
    "binder": "ePGDM13 (antibody, V domains shown) VH: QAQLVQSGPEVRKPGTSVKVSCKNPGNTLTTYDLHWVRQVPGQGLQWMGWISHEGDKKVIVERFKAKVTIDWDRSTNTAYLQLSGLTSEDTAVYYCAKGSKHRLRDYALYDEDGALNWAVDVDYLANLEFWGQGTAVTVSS VL: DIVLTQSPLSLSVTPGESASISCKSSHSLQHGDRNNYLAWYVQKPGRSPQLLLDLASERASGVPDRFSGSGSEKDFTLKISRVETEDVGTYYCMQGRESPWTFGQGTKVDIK",
    "quantity": "IC50 (µg/ml) with constrains",
    "recorded-value": 0.006
  },
  {
    "binder": "ePGDM9 (antibody, V domains shown) VH: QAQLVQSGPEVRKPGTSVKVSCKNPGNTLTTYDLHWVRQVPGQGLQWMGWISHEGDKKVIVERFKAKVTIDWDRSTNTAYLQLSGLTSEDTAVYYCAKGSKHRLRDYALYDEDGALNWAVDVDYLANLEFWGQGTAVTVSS VL: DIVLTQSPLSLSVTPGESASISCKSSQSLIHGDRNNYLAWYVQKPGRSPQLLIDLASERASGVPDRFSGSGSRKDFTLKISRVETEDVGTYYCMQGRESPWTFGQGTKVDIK",
    "quantity": "IC50 (µg/ml) with constrains",
    "recorded-value": 0.004
  }
]
